Value source: paper PMC10790750

System: MmaR (MmaRDSM5686) (Methylobacterium fujisawaense, UniProt A0ABR6DCX3)
Construct: gene GGQ91_003337; mmaR inserted in genome of Methylorubrum extorquens AWP227 (mlaR/mlaI deleted) under native mlaR promoter; reporter strain AWP370 with mmaI promoter-mScarlet
Sequence (A0ABR6DCX3 entry or part of it): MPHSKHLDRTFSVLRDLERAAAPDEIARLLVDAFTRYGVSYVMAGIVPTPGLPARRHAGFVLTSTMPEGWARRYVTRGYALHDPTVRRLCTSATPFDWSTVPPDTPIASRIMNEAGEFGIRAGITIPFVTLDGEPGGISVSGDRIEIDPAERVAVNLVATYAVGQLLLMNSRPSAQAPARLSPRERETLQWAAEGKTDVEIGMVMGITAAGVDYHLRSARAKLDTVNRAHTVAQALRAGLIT
Assay Method Text: mScarlet reporter activation in M. extorquens AWP370
Assay type: cell-based
Applied Conditions: purified natural signal added; mmaI promoter-mScarlet reporter; agonist
Measurement Type: pEC50
Friendly reminder that pEC50 comes from taking -log10 of the concentration in mol/L.

Task: Query (compound): CCCCCC/C=C\C[C@@H](O)CC(=O)NC1CCOC1=O (stereo partly drawn) [3R-OH-5Z-C12:1-HSL] ; field requested: pEC50
Result: 9.70

* * *

System: MmaR (MmaRDSM5686) (Methylobacterium fujisawaense)
Construct: gene GGQ91_003337; mmaR inserted in genome of Methylorubrum extorquens AWP227 (mlaR/mlaI deleted) under native mlaR promoter; reporter strain AWP370 with mmaI promoter-mScarlet
Assay Method Text: mScarlet reporter activation in M. extorquens AWP370
Format: cell-based
Measurement Type: EC50 (nM)
// return numeric value only (unit: nM, not printed)

Task: Query (compound): CCCCCCCCCC(O)CC(=O)N[C@H]1CCOC1=O (stereo partly shown) [3-OH-C12-HSL] ; field requested: EC50
Result: 1.7
